# Substrate: PET
# protocol-details: Proxy for plastic degradation [HPLC-UV]
# test-conditions: pH 9; 40 °C; 72 h
assay-metric: Proxy for plastic degradation (µM)
Numbers only; they are read as µM.

Which Proxy for plastic degradation reading was recorded for the protein unnamed (protein) MNFPRASRLMQAAVLGGLMAVSAAATAQTNPYARGPNPTAASLEASAGPFTVRSFTVSRPSGYGAGTVYYPTNAGGTVGAIAIVPGYTARQSSIKWWGPRLASHGFVVITIDTNSTLDQPESRSSQQMAALRQVASLNGTSSSPIYGKVDTARMGVMGWSMGGGGSLISAANNPSLKAAAPQAPWHSSTNFSSVTVPTLIFACENDSIAPVNSSALPIYDSMSRNAKQFLEINGGSHSCANSGNSNQALIGKKGVAWMKRFMDNDTRYSTFACENPNSTRVSDFRTANCS ?
52.2

Which Proxy for plastic degradation reading was recorded for the protein unnamed (protein) MNFPRASRLMQAAVLGGLMAVSAAATAQTNPYARGPNPTAASLEASAGPFTVRSFTVSRPSGYGAGTVYYPTNAGGTVGAIAIVPGYTARQSSIKWWGPRLASHGFVVITIDTNSTLDQPSSRSSQQMAALRQVASLNGTSSSPIYGKVDTARMGVMGWSMGGGGSLISAANNPSLKAAAPQAPWVSSTNFSSVTVPTLIFACENDSIAPVNSSALPIYDSMSRNAKQFLEINGGSHSCANSGNSNQALIGKKGVAWMKRFMDNDTRYSTFACENPNSTRVSDFRTANCS ?
7.1

Which Proxy for plastic degradation reading was recorded for the protein unnamed (protein) MNFPRASRLMQAAVLGGLMAVSAAATAQTNPYARGPNPTAASLEASAGPFTVRSFTVSRPSGYGAGTVYYPTNAGGTVGAIAIVPGYTARQSSIKWWGPRLASHGFVVITIDTNSTLDQPSSRSSQQMAALRQVASLNGTSSSPIYGKVDTARMGVMGWSMGGGGSLISAANNPSLKAAAPQAPWLSSTNFSSVTVPTLIFACENDSIAPVNSSALPIYDSMSRNAKQFLEINGGSHSCANSGNSNQALIGKKGVAWMKRFMDNDTRYSTFACENPNSTRVSDFRTANCS ?
7.1

Which Proxy for plastic degradation reading was recorded for the protein unnamed (protein) MNFPRASRLMQAAVLGGLMAVSAAATAQTNPYARGPNPTAASLEASAGPFTVRSFTVSRPSGYGAGTVYYPTNAGGTVGAIAIVPGYTARQSSIKWWGPRLASHGFVVITIDTNSTLDQPDSRSSQQMAALRQVASLNGTSSSPIYGKVDTARMGVMGWSMGGGGSLISAANNPSLKAAAPQAPWDSSTNFSSVTVPTLIFACENDSIAPVNSSALPIYDSMSRNAKQFLEINGGSHSCANSGNSNQALIGKKGVAWMKRFMDNDTRYSTFACENPNSTRVSDFRTANCS ?
7.2

Which Proxy for plastic degradation reading was recorded for the protein unnamed (protein) MNFPRASRLMQAAVLGGLMAVSAAATAQTNPYARGPNPTAASLEASAGPFTVRSFTVSRPSGYGAGTVYYPTNAGGTVGAIAIVPGYTARQSSIKWWGPRLASHGFVVITIDTNSTLDQPSSRSSQQMAALRQVASLNGTSSSPIYGKVDTARMGVMGWSMGGGGSLISAANNPSLKAAAPQAPWISSTNFSSVTVPTLIFACENDSIAPVNSSALPIYDSMSRNAKQFLEINGGSHSCANSGNSNQALIGKKGVAWMKRFMDNDTRYSTFACENPNSTRVSDFRTANCS ?
6.9

Which Proxy for plastic degradation reading was recorded for the protein unnamed (protein) MNFPRASRLMQAAVLGGLMAVSAAATAQTNPYARGPNPTAASLEASAGPFTVRSFTVSRPSGYGAGTVYYPTNAGGTVGAIAIVPGYTARQSSIKWWGPRLASHGFVVITIDTNSTLDQPDSRSSQQMAALRQVASLNGTSSSPIYGKVDTARMGVMGWSMGGGGSLISAANNPSLKAAAAQAPWHSSTNFSSVTVPTLIFACENDSIAPVNSSALPIYDSMSRNAKQFLEINGGSHSCANSGNSNQALIGKKGVAWMKRFMDNDTRYSTFACENPNSTRVSDFRTANCS ?
25.3

Which Proxy for plastic degradation reading was recorded for the protein unnamed (protein) MNFPRASRLMQAAVLGGLMAVSAAATAQTNPYARGPNPTAASLEASAGPFTVRSFTVSRPSGYGAGTVYYPTNAGGTVGAIAIVPGYTARQSSIKWWGPRLASHGFVVITIDTNSTLDQPSSRSSQQMAALRQVASLNGTSSSPIYGKVDTARMGVMGWSMGGGGSLISAANNPSLKAAASQAPWDSSTNFSSVTVPTLIFACENDSIAPVNSSALPIYDSMSRNAKQFLEINGGSHSCANSGNSNQALIGKKGVAWMKRFMDNDTRYSTFACENPNSTRVSDFRTANCS ?
2.2

Which Proxy for plastic degradation reading was recorded for the protein unnamed (protein) MNFPRASRLMQAAVLGGLMAVSAAATAQTNPYARGPNPTAASLEASAGPFTVRSFTVSRPSGYGAGTVYYPTNAGGTVGAIAIVPGYTARQSSIKWWGPRLASHGFVVITIDTNSTLDQPSSRSSQQMAALRQVASLNGTSSSPIYGKVDTARMGVMGWSMGGGGSLISAANNPSLKAAAPQAPWHSSTNFSSVTVPTLIFACENDSIAPVNSSALPIYDSMSRNAKQFLEINGGSHSCANSGNSNQALIGKKGVAWMKRFMDNDTRYSTFACENPNSTRVSDFRTANCS ?
19.7

These measurements were taken from the PETadex activity labels (doi:10.1021/acscatal.9b00568).
